Biological target: hGR(I747/T) (Homo sapiens, UniProt P04150, I747T)
Construct: The same shift was observed as with the complete GR (I747/T) mutant; expressed in transfected cells
Sequence (P04150 1-777 I747T): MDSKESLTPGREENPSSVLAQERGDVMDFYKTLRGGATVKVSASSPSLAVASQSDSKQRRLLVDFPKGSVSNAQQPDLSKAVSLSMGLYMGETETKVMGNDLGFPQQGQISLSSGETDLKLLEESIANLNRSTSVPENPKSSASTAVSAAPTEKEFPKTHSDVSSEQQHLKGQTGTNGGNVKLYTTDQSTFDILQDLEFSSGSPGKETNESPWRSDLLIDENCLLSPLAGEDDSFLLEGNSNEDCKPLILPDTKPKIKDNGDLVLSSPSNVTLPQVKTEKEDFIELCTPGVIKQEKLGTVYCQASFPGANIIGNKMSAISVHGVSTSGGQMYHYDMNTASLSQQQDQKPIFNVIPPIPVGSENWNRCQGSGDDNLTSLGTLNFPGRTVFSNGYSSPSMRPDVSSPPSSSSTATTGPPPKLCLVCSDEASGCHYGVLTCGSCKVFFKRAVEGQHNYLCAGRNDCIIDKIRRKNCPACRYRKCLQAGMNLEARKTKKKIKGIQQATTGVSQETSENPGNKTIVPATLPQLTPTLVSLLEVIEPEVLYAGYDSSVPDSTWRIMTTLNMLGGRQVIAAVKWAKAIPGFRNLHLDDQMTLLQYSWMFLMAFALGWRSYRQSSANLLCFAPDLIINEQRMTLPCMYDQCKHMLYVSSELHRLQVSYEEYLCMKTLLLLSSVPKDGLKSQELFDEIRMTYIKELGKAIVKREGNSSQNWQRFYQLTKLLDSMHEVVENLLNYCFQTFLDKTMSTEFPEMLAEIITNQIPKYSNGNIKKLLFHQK
Assay: Transcriptional activation of pTAT-tk-Luc luciferase reporter in transiently transfected CV-1 cells
Format: cell-based
Conditions: CV-1 cells, pTAT-tk-Luc
readout type: transactivation by the I747/T mutant receptor compared with wild-type receptor

# entry smiles, obs value
records = [
    ("C[C@]12CCC(=O)C=C1CC[C@@H]1[C@@H]2[C@@H](O)C[C@]2(C=O)[C@@H](C(=O)CO)CC[C@@H]12", "suppressed"),
    ("C[C@]12C[C@H](O)[C@H]3[C@@H](CCC4=CC(=O)CC[C@@]43C)[C@@H]1CC[C@@H]2C(=O)CO", "suppressed"),
]

----------
molecular target: hGR(I747/T) (Homo sapiens, UniProt P04150, I747T); construct: The same shift was observed as with the complete GR (I747/T) mutant; assay: Transcriptional activation of pTAT-tk-Luc luciferase reporter in transiently transfected CV-1 cells; conditions: CV-1 cells, pTAT-tk-Luc; ligand concentration giving 50% of maximum transcriptional response
# EC50 per record follows

# molecule, target desc, EC50
measured = [
    ("CC1(C)O[C@@H]2C[C@H]3[C@@H]4CCC5=CC(=O)C=C[C@]5(C)[C@@]4(F)[C@@H](O)C[C@]3(C)[C@]2(C(=O)CO)O1 [TA, triamcinolone acetonide]", "hGR(I747/T) (Homo sapiens, UniProt P04150, I747T)", "20 nM"),
    ("CC1(C)O[C@@H]2C[C@H]3[C@@H]4C[C@H](F)C5=CC(=O)C=C[C@]5(C)[C@@]4(F)[C@@H](O)C[C@]3(C)[C@]2(C(=O)CO)O1 [Fluocinolone, fluocinolone acetonide]", "hGR(I747/T) (Homo sapiens, UniProt P04150, I747T)", "3 nM"),
    ("CC#C[C@]1(O)CC[C@H]2[C@@H]3C=C(C)C4=CC(=O)C=C[C@]4(C)[C@H]3[C@@H](O)C[C@@]21C [RU28362]", "hGR(I747/T) (Homo sapiens, UniProt P04150, I747T)", "7 nM"),
]

Values were extracted from patent US6699686B1.
